# TESTED_ON: T1, IL-18 receptor (IL-18Rα and IL-18Rβ) (UniProt Q13478 19-541; O95256 20-599, limits assumed)
# T1 sequence (looked up) 1: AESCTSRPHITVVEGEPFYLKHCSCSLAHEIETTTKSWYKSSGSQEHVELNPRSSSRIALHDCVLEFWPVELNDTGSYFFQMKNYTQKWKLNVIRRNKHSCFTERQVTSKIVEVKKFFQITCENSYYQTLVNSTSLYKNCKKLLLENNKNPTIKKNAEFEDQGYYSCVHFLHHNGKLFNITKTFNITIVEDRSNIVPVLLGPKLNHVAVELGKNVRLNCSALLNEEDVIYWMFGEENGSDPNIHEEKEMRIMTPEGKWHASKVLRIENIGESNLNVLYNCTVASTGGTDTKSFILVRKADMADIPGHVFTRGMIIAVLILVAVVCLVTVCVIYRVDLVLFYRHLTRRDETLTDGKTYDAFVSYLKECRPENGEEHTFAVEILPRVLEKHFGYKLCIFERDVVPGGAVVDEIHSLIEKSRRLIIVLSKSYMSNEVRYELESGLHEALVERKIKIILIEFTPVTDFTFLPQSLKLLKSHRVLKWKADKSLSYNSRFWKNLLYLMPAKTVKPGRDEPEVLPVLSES
# T1 sequence (looked up) 2: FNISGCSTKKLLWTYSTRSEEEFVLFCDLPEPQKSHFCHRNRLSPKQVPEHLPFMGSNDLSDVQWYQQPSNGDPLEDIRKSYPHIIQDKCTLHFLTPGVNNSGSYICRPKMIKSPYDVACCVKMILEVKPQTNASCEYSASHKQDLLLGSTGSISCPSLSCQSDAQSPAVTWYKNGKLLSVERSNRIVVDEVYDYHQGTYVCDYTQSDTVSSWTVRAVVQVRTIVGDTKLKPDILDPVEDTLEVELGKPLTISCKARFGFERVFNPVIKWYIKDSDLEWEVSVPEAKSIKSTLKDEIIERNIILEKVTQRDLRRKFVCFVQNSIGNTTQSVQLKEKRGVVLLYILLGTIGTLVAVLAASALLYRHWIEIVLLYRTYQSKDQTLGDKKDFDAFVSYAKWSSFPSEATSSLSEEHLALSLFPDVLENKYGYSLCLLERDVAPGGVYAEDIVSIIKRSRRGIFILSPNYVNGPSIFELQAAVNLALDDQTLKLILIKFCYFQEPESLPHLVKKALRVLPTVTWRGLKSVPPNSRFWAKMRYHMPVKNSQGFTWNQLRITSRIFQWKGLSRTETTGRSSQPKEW
# EXPERIMENTAL_DETAILS: cell-based or functional assay
OUTCOME_MEASURE: EC50 pM, IFN gamma expression in PBMCs (pM)
Answer format: numeric, pM implied, no suffix.

IL-18 variant G3T, K53S (ligand) YFTKLESKLSVIRNLNDQVLFIDQGNRPLFEDMTDSDMRDNAPRTIFIISMYSDSQPRGMAVTISVKSEKISTLSSENKIISFKEMNPPDNIKDTKSDIIFFQRSVPGHDNKMQFESSSYEGYFLASEKERDLFKLILKKEDELGDRSIMFTVQNED    368
Comparator 1 (human IL-18 variant M51K, K53S, Q56L, P57A, M60L, S105D, D110S, N111R) (ligand) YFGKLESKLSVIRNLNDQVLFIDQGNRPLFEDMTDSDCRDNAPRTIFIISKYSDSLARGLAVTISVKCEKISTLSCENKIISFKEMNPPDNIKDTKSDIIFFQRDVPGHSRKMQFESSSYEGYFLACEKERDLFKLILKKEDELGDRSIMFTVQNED    0.093
IL-18 variant G3E, K53S (ligand) YFEKLESKLSVIRNLNDQVLFIDQGNRPLFEDMTDSDMRDNAPRTIFIISMYSDSQPRGMAVTISVKSEKISTLSSENKIISFKEMNPPDNIKDTKSDIIFFQRSVPGHDNKMQFESSSYEGYFLASEKERDLFKLILKKEDELGDRSIMFTVQNED    517
IL-18 variant G3R, N91M, K53S (ligand, also called G3R/K53S/N91M) YFRKLESKLSVIRNLNDQVLFIDQGNRPLFEDMTDSDMRDNAPRTIFIISMYSDSQPRGMAVTISVKSEKISTLSSENKIISFKEMNPPDMIKDTKSDIIFFQRSVPGHDNKMQFESSSYEGYFLASEKERDLFKLILKKEDELGDRSIMFTVQNED    73.9
IL-18 variant G3R, N91W, K53A (ligand, also called G3R/K53A/N91W) YFRKLESKLSVIRNLNDQVLFIDQGNRPLFEDMTDSDMRDNAPRTIFIISMYADSQPRGMAVTISVKSEKISTLSSENKIISFKEMNPPDWIKDTKSDIIFFQRSVPGHDNKMQFESSSYEGYFLASEKERDLFKLILKKEDELGDRSIMFTVQNED    49.8
IL-18 variant G3R, K53S (ligand) YFRKLESKLSVIRNLNDQVLFIDQGNRPLFEDMTDSDMRDNAPRTIFIISMYSDSQPRGMAVTISVKSEKISTLSSENKIISFKEMNPPDNIKDTKSDIIFFQRSVPGHDNKMQFESSSYEGYFLASEKERDLFKLILKKEDELGDRSIMFTVQNED    73.8

Form field: reported EC50 pM, IFN gamma expression in PBMCs of IL-18 variant G3H, N91V, K53S (ligand, also called G3H/K53S/N91V) YFHKLESKLSVIRNLNDQVLFIDQGNRPLFEDMTDSDMRDNAPRTIFIISMYSDSQPRGMAVTISVKSEKISTLSSENKIISFKEMNPPDVIKDTKSDIIFFQRSVPGHDNKMQFESSSYEGYFLASEKERDLFKLILKKEDELGDRSIMFTVQNED
222
